IC50: recorded values
- Tested on: 1a-H77 replicon cells
- assay name: HCV 1a replicon inhibitory activity (Renilla luciferase)
- Format: cell-based, hepatitis C virus
- protocol conditions: Hepatitis C virus, 48 h, read-out: IC50 value (95% Confidence Intervals) pM Replicon 1A assay
Structures can show the parent of a compound that is named as a salt.
attribute measured: IC50 (pM)

>  <compound>
COC(=O)N[C@H](C(=O)N1CCC[C@H]1c1nc(-c2ccc(-c3cnc4cc(-c5cnc([C@@H]6CCCN6C(=O)[C@H](NC(=O)OC)C(C)(C)C)[nH]5)ccc4n3)cc2)c[nH]1)C(C)C [Example 73, trifluoroacetic acid salt]

>  <number>
13.3

$$$$
>  <compound>
COC(=O)N[C@H](C(=O)N1CCC[C@H]1c1nc(-c2ccc(-c3cnc4cc(-c5cnc([C@@H]6CCCN6C(=O)[C@H](Cc6ccccc6)NC(C)=O)[nH]5)ccc4n3)cc2)c[nH]1)C(C)C [Example 47, trifluoroacetic acid salt]

>  <number>
6850

$$$$
>  <compound>
CC[C@H](C)[C@H](NC(=O)OC)C(=O)N1CCC[C@H]1c1ncc(-c2ccc3nc(-c4ccc(-c5c[nH]c([C@@H]6CCCN6C(=O)[C@@H](NC(=O)OC)C(C)C)n5)cc4)cnc3c2)[nH]1 [Example 58, trifluoroacetic acid salt]

>  <number>
6.71

$$$$
>  <compound>
COC(=O)N[C@H](C(=O)N1CCC[C@H]1c1nc(-c2ccc(-c3cnc4cc(-c5cnc([C@@H]6CCCN6C(=O)CNC(=O)CNC(C)=O)[nH]5)ccc4n3)cc2)c[nH]1)C(C)C [Example 36, trifluoroacetic acid salt]

>  <number>
29800

$$$$
